Experiment: Tmax in human plasma at 1 to 100 mg administered as PEG300-based oral solution
Assay type: ADME, cell-free
Measured Metric: Tmax

QUERY: What does the record list as Tmax for CC(O)(COc1ccc(C#N)cc1)C(=O)Nc1ccc(C#N)c(C(F)(F)F)c1 (stereo unspecified) ?
RESULT: 0.8 to 2.3 h

---

Test system: Rattus norvegicus
Assay: Androgenic activity in ORX Sprague-Dawley rat assessed as restoration of seminal vesicles weight at 0.1 to 1 ug/day delivered at constant rate for 14 days via subcutaneous osmotic pumps
Assay type: functional
Measured Metric: Activity

# Smiles, Activity
data = [
    ("C[C@](O)(COc1ccc(Cl)cc1)C(=O)Nc1ccc(C#N)c(C(F)(F)F)c1", "Dose-dependent effect"),
    ("C[C@](O)(COc1ccc(Br)cc1)C(=O)Nc1ccc([N+](=O)[O-])c(C(F)(F)F)c1", "<40%"),
    ("CC(=O)Nc1ccc(OC[C@](C)(O)C(=O)Nc2ccc([N+](=O)[O-])c(C(F)(F)F)c2)cc1", "Dose-dependent effect"),
    ("C[C@](O)(COc1ccc(F)cc1)C(=O)Nc1ccc([N+](=O)[O-])c(C(F)(F)F)c1", "<40%"),
]

QUERY: What does the record list as Activity for `C[C@](O)(COc1ccc(I)cc1)C(=O)Nc1ccc([N+](=O)[O-])c(C(F)(F)F)c1` ?
RESULT: <40%

QUERY: And for `C[C@](O)(COc1ccc(Cl)cc1)C(=O)Nc1ccc([N+](=O)[O-])c(C(F)(F)F)c1` ?
RESULT: <20%

---

Assay: Plasma clearance in beagle dog at 3 mg/kg, iv after 72 hrs by HPLC analysis
Type: ADME, organism-based, Canis lupus familiaris
Measured Metric: clearance

QUERY: What does the record list as clearance for `CC(=O)Nc1ccc(OC[C@](C)(O)C(=O)Nc2ccc([N+](=O)[O-])c(C(F)(F)F)c2)cc1` ?
RESULT: 4.4 mL/min/kg

---

Assay: Terminal half life in beagle dog at 3 mg/kg, iv after 72 hrs by HPLC analysis
Assay type: ADME, organism-based, Canis lupus familiaris
Settings: in vivo, read-out: beta t1/2 (converted)
Measured Metric: half-life (h)
Respond numerically; units are h and should not be typed.

QUERY: What does the record list as half-life for `CC(=O)Nc1ccc(OC[C@](C)(O)C(=O)Nc2ccc([N+](=O)[O-])c(C(F)(F)F)c2)cc1` ?
RESULT: 4
